Values compiled from patent US20110053897A1.

target: Syk kinase (Homo sapiens); construct: purchased; assay: Syk kinase inhibition, Caliper LabChip off-chip mobility-shift kinase assay; assay type: biochemical; conditions: read-out: Syk Enzyme IC50
Let's look at some compounds and their measured pIC50.
On this scale, pIC50 is minus log10 of a concentration expressed in M (mol/L).

Consider the reported pIC50 for these compounds:
1. CCCc1ccnc(Nc2cc3cc[nH]c(=O)c3c(NC(C)C)n2)c1 :: 6.79
2. Cc1nc(-c2cc3cc[nH]c(=O)c3c(Nc3ccc([C@H]4CC[C@H](N5CCOCC5)CC4)cc3)n2)cnc1N :: 6.65
3. CNC(=O)c1ccc(Nc2nc(Nc3cnccn3)cc3ccn(C)c(=O)c23)cc1 :: 6.48

# context switch: different compound, same pIC50
-- ask Look up pIC50 for this compound: "CCN1CCC(c2ccc(Nc3nc(-c4cncc(OC)n4)cc4cc[nH]c(=O)c34)cc2C)CC1"
-- reply 8.00
